- Test system: RAW264.7
- ASSAY_SUMMARY: Antiinflammatory activity against mouse RAW264.7 cells assessed as inhibition of LPS-induced IL-1beta level incubated for 48 hrs by ELISA assay
- Type: functional, cell-based
- STATED_CONDITIONS: RAW264.7, 48 h
pIC50: −log10 of the molar value.
Quick rule for you: pIC50 at 5 or higher means 1, lower means -1.

SMILES_DATA: CC1(C)CC[C@]2(C(=O)O)CC[C@]3(C)C(=CC[C@@H]4[C@@]5(C)Cc6cn(C7CCNCC7)nc6C(C)(C)[C@@H]5CC[C@]43C)[C@@H]2C1
STUDY_SYSTEM: RAW264.7
CLASSIFICATION: 1
--
SMILES_DATA: CC1(C)CC[C@]2(C(=O)O)CC[C@]3(C)C(=CC[C@@H]4[C@@]5(C)Cc6cn(CCBr)nc6C(C)(C)[C@@H]5CC[C@]43C)[C@@H]2C1
STUDY_SYSTEM: RAW264.7
CLASSIFICATION: 1
--
SMILES_DATA: CC1(C)CC[C@]2(C(=O)O)CC[C@]3(C)C(=CC[C@@H]4[C@@]5(C)Cc6cn(C7COC7)nc6C(C)(C)[C@@H]5CC[C@]43C)[C@@H]2C1
STUDY_SYSTEM: RAW264.7
CLASSIFICATION: -1
--
SMILES_DATA: CC1(C)CC[C@]2(C(=O)O)CC[C@]3(C)C(=CC[C@@H]4[C@@]5(C)Cc6cn(CCS(C)(=O)=O)nc6C(C)(C)[C@@H]5CC[C@]43C)[C@@H]2C1
STUDY_SYSTEM: RAW264.7
CLASSIFICATION: -1
--
SMILES_DATA: CC1(C)CC[C@]2(C(=O)O)CC[C@]3(C)C(=CC[C@@H]4[C@@]5(C)Cc6cn(CC(=O)O)nc6C(C)(C)[C@@H]5CC[C@]43C)[C@@H]2C1
STUDY_SYSTEM: RAW264.7
CLASSIFICATION: -1

Item CC1(C)CC[C@]2(C(=O)O)CC[C@]3(C)C(=CC[C@@H]4[C@@]5(C)Cc6cn(C7CCOCC7)nc6C(C)(C)[C@@H]5CC[C@]43C)[C@@H]2C1 with pIC50 of 5 or above?
-1

Item CC1(C)CC[C@]2(C(=O)O)CC[C@]3(C)C(=CC[C@@H]4[C@@]5(C)Cc6cn(CCNCC7CC7)nc6C(C)(C)[C@@H]5CC[C@]43C)[C@@H]2C1 with pIC50 of 5 or above?
1

Item CC1(C)CC[C@]2(C(=O)O)CC[C@]3(C)C(=CC[C@@H]4[C@@]5(C)CC[C@H](O)C(C)(C)[C@@H]5CC[C@]43C)[C@@H]2C1 with pIC50 of 5 or above?
-1

Item CC1(C)CC[C@]2(C(=O)O)CC[C@]3(C)C(=CC[C@@H]4[C@@]5(C)Cc6cn(C7CCC(F)(F)CC7)nc6C(C)(C)[C@@H]5CC[C@]43C)[C@@H]2C1 with pIC50 of 5 or above?
-1
